Let's look at some compounds and their measured melting point.

Guide cases for melting point, answers given:
Cl.c1ccc2c(c1)COc1ccccc1N2C[C@@H]1CCCN1CCc1ccc2c(c1)OCO2 158 to 162 °C
Cl.c1ccc(CCN2CCC[C@@H]2CN2c3ccccc3COc3ccccc32)cc1 179 to 182 °C
Cl.N#Cc1ccc(CCN2CCC[C@@H]2CN2c3ccccc3COc3ccccc32)cc1 109 to 112 °C

melting point reported for this compound COc1cccc(CCN2CCC[C@H]2CN2c3ccccc3COc3ccccc32)c1.Cl : 164 to 166 °C

melting point reported for this compound COc1ccc(CCN2CCC[C@H]2CN2c3ccccc3COc3ccccc32)cc1OC.Cl : 106 to 109 °C

melting point reported for this compound COc1ccc(CCN2CCC[C@@H]2CN2c3ccccc3COc3ccccc32)cc1OC.Cl : 106 to 109 °C
